All values here come from ChEMBL document CHEMBL1156452.

target: Protein kinase C alpha type (Homo sapiens)
recorded metric: IC50 (nM)
Numeric answer only, unit nM assumed.

Lookup: Fill in the recorded IC50 for this compound, with Protein kinase C alpha type (Homo sapiens) as test system: `Cn1c2ccccc2c2c3c(c4c5ccccc5n(CCC#N)c4c21)CNC3=O`
Found: 2.3

----------
target: Protein kinase C beta type (Homo sapiens, UniProt P05771)
Sequence (P05771 whole entry): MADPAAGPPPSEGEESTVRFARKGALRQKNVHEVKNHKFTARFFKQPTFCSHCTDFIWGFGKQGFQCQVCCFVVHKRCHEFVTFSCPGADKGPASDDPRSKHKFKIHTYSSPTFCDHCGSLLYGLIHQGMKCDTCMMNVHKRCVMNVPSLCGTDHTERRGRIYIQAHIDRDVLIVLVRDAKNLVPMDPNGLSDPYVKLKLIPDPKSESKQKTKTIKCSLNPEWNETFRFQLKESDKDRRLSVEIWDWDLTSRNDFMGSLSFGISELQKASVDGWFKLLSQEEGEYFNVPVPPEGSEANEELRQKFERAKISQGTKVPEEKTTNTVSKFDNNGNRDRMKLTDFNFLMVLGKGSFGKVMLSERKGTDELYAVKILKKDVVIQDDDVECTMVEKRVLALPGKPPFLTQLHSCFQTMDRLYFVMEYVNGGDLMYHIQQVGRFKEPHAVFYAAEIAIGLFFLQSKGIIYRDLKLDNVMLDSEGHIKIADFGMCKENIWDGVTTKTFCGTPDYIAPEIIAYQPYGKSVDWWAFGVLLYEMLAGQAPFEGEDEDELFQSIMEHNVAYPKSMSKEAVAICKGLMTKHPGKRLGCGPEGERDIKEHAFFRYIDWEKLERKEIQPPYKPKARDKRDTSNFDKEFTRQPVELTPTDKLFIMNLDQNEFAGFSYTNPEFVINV
recorded metric: IC50 (nM)
A number alone suffices; assume nM.

Lookup: Lab request: please report IC50 under test system Protein kinase C beta type (Homo sapiens, UniProt P05771) for Cn1c2ccccc2c2c3c(c4c5ccccc5n(CCC#N)c4c21)CNC3=O [GO-6976]
Found: 6.2
